List of OD450 values.
- system-under-test: T1, mouse LAG-3 protein with hFc tag (mLAG-3-hFc protein) (mouse; human, UniProt Q61790 24-442)
- T1 construct: Made in HEK293 cells; also called mouse LAG-3 extracellular domain protein; not shown: human IgG Fc fragment (hFc) of the pCpC vector
- T1 sequence: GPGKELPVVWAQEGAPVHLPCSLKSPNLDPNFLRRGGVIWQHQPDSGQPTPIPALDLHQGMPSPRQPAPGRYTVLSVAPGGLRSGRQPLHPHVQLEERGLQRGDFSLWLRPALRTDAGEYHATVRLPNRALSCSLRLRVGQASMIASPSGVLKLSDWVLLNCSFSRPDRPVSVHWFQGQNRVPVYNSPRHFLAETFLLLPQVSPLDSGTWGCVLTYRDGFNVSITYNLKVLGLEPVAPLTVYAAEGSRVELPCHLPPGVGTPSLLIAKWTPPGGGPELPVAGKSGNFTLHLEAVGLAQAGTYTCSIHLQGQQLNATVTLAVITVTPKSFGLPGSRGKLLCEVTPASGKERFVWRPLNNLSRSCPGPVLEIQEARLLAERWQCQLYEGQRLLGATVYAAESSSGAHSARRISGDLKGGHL
- test-name: ELISA, mLAG-3-hFc coated; 0.0067 nM

# binder, OD450 (OD450)
measured = [
    ("105F1E10 (LAG-3 mouse-human chimeric antibody) (antibody, V domains shown) VH: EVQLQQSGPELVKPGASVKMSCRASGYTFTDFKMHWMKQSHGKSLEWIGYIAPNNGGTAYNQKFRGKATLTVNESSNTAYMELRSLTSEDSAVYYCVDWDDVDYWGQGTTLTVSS VL: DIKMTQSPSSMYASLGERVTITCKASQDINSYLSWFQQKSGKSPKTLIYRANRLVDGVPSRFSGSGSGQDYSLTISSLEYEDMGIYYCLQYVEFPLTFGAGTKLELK", 0.09),
    ("409B11E12 (LAG-3 mouse-human chimeric antibody) (antibody, V domains shown) VH: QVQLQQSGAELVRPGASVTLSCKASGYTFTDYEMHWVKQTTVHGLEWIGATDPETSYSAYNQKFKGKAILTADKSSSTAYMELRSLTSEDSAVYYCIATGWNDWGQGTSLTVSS VL: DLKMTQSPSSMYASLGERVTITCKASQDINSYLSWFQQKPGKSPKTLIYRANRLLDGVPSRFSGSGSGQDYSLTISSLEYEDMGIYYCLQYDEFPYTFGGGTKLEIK", 0.07),
    ("405B8H3 (LAG-3 mouse-human chimeric antibody) (antibody, V domains shown, also called mouse-human chimeric antibody 405B8H3) VH: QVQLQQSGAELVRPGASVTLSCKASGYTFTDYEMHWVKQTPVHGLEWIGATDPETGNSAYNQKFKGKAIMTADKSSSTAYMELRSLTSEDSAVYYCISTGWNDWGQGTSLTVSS VL: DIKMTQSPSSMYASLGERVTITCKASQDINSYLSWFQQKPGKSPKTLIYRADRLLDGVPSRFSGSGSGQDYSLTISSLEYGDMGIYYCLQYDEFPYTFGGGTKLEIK", 0.08),
    ("409D4E10 (LAG-3 mouse-human chimeric antibody) (antibody, V domains shown) VH: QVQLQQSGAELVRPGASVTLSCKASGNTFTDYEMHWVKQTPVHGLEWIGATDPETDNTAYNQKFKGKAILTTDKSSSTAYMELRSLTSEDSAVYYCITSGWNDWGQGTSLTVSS VL: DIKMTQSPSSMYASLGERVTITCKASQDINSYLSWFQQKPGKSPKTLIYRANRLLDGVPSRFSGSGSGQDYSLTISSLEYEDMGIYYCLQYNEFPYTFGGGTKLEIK", 0.09),
    ("556F6B8 (LAG-3 mouse-human chimeric antibody) (antibody, V domains shown, also called 556F8B8) VH: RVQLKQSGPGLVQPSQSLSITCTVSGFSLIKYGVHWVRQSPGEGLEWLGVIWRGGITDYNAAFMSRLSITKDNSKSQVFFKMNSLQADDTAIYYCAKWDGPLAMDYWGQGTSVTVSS VL: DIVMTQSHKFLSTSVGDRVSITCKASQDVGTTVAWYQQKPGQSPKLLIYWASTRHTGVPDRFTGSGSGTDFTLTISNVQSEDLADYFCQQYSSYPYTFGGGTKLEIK", 0.14),
]
